biological target: UniProtKB Q01726; assay: Concentration (50 uM) required for cAMP accumulation mediated by human Melanocortin 1 receptor in HEK293 cells; type: functional, cell-based
Sequence (Q01726 whole entry, looked up): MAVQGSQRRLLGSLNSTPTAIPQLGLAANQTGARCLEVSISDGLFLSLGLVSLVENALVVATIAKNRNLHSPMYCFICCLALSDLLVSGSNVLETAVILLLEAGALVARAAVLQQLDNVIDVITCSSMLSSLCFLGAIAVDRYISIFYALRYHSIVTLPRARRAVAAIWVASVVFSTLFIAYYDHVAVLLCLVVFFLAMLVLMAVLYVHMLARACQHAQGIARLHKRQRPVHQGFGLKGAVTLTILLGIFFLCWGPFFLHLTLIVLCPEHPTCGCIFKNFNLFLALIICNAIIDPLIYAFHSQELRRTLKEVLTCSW
Below is a list of entries, each paired with its recorded cAMP accumulation at 50 uM value.
Kindly answer with a numeric value in %, unit omitted.

compound	study_target	cAMP accumulation at 50 uM (%)
CCCCC(=O)N[C@]1(C(=O)N[C@H](Cc2ccccc2)C(=O)N[C@@H](CCCN=C(N)N)C(=O)N[C@@H](Cc2c[nH]c3ccccc23)C(=O)NCC(N)=O)CC[C@H](c2ccc(Cl)cc2)CC1	UniProtKB Q01726	45
CCCCC(=O)N[C@]1(C(=O)NC(Cc2ccccc2)C(=O)NC(CCCN=C(N)N)C(=O)N[C@@H](Cc2c[nH]c3ccccc23)C(=O)NCC(N)=O)CC[C@H](c2ccc(C)cc2)CC1 (single isomer, unassigned)	UniProtKB Q01726	55
NC(=O)CNC(=O)[C@H](Cc1c[nH]c2ccccc12)NC(=O)[C@H](CCCN=C(N)N)NC(=O)[C@@H](Cc1ccccc1)NC(=O)[C@H]1CC[C@H](c2ccccc2)CC1	UniProtKB Q01726	60
CCCCC(=O)N[C@]1(C(=O)N[C@H](Cc2ccccc2)C(=O)N[C@@H](CCCN=C(N)N)C(=O)N[C@@H](Cc2c[nH]c3ccccc23)C(=O)NCC(N)=O)CC[C@H](c2ccccc2)CC1	UniProtKB Q01726	25
CCCCC(=O)N[C@]1(C(=O)N[C@H](Cc2ccccc2)C(=O)N[C@@H](CCCN=C(N)N)C(=O)N[C@@H](Cc2c[nH]c3ccccc23)C(=O)NCC(N)=O)CC[C@H](c2ccc(OC(C)C)cc2)CC1	UniProtKB Q01726	60
CCCCC(=O)N[C@]1(C(=O)N[C@H](Cc2ccccc2)C(=O)N[C@@H](CCCN=C(N)N)C(=O)N[C@@H](Cc2c[nH]c3ccccc23)C(=O)NCC(N)=O)CC[C@H](c2ccc(OCC)cc2)CC1	UniProtKB Q01726	0

Look up cAMP accumulation at 50 uM for this compound: CCCCC(=O)N[C@]1(C(=O)NC(Cc2ccccc2)C(=O)NC(CCCN=C(N)N)C(=O)N[C@@H](Cc2c[nH]c3ccccc23)C(=O)NCC(N)=O)CC[C@H](c2ccc(OC)cc2)CC1 (single isomer, unassigned)
0
